B1: ANKRD44 (parent)
chain: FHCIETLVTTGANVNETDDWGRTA

Variants of: B1
Assay: protein stability index of a GFP-peptide fusion (GPS, HEK-293T) (PSI 1-6); higher = more stable;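 also: lentivirally expressed fusions sorted by FACS into six bins by GFP to DsRed ratio, PSI derived from sequencing read proportions per bin multiplied by bin number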
Conditions: c terminus: a fixed tail appended
Overview of reported protein stability index across a group of variants:
Write the number on its own, no unit after it.

[
  {
    "Biosequence": "FHCIETLVTTGANSNETDDWGRTA",
    "protein stability index": 2.41
  }
]

# query: protein stability index of entry "FHDIETLVTTGANVNETDDWGRTA" 3.62

# query: protein stability index of entry "FHCIETLVTTGANVNEWDDWGRTA" 2.04

# query: protein stability index of entry "FHCIETLVTTHANVNETDDWGRTA" 1.53

# query: protein stability index of entry "FHCIETLVTTGANVNETDMWGRTA" 2

# query: protein stability index of entry "FHCIETLVTTGMNVNETDDWGRTA" 2.14

# query: protein stability index of entry "FHCIETLVTTGANVNETDDWERTA" 2.33

# query: protein stability index of entry "FHCIETLVTTGANVNETGDWGRTA" 1.79

# query: protein stability index of entry "FHCIETLVTTGAGVNETDDWGRTA" 2.21

# query: protein stability index of entry "FHCTETLVTTGANVNETDDWGRTA" 2.87

# query: protein stability index of entry "FHCIETLMTTGANVNETDDWGRTA" 2.2

# query: protein stability index of entry "FHCIETLVTTGANVCETDDWGRTA" 1.9

# query: protein stability index of entry "FHCIETLVTTGANPNETDDWGRTA" 2.71

# query: protein stability index of entry "FHCIETLVITGANVNETDDWGRTA" 2.67

# query: protein stability index of entry "FHCIEFLVTTGANVNETDDWGRTA" 2.03

# query: protein stability index of entry "FHCIEPLVTTGANVNETDDWGRTA" 2.08

# query: protein stability index of entry "FHCIETLVTTGANVDETDDWGRTA" 2.29

# query: protein stability index of entry "FHCIETLVTTGANVKETDDWGRTA" 2.44

# query: protein stability index of entry "FHCIETNVTTGANVNETDDWGRTA" 3.08

# query: protein stability index of entry "FHCIETLVTTGANVNETDQWGRTA" 2.06

# query: protein stability index of entry "FHCIETLVTTGANVNETDDWGRTI" 1.88
